Data provenance is patent US20210238225A1.

biological target: Pin1 (GST-Pin1) (Homo sapiens, UniProt Q13526); experiment: Fluorescence polarization (FP) assay, binding to Pin1; settings: competition with fluorescein-labeled peptide probe; 12 hours pre-incubation at 4° C.; Kenakin Ki equation; read-out: Ki, μM (FP Assay)
Sequence (Q13526 whole entry): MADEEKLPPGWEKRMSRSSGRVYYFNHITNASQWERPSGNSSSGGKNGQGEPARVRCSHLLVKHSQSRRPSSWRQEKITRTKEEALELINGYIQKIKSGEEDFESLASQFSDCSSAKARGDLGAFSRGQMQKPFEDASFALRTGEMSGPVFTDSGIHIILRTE
Non-standard residues stand in square brackets, D forms with d. Residues, ends and D or L forms follow the SMILES beside them. *: point of attachment. Bip = N[C@@H](Cc1ccc(-c2ccccc2)cc1)C(=O)O; Phe(4-F) = N[C@@H](Cc1ccc(F)cc1)C(=O)O; 2Nal = N[C@@H](Cc1ccc2ccccc2c1)C(=O)O; Bta = N[C@@H](Cc1csc2ccccc12)C(=O)O; NH(4-Me-benzyl) = Cc1ccc(CN*)cc1; NMeF = CN[C@@H](Cc1ccccc1)C(=O)O; hPhe = N[C@@H](CCc1ccccc1)C(=O)O; Cit = NC(=O)NCCC[C@H](N)C(=O)O; aThr = C[C@H](O)[C@H](N)C(=O)O; Pip = O=C(O)[C@@H]1CCCCN1; Piperidide = C1CCN(*)CC1; ClAc = O=C(CCl)*
Here the recorded Ki is given for each entry.
Measured quantity: Ki (µM)

>>> quantitative_result("NC(=O)NCCC[C@H](NC(=O)[C@H](Cc1c[nH]c2ccccc12)NC(=O)[C@@H]1CCCCN1C(=O)[C@H](Cc1ccccc1)NC(=O)CCl)C(=O)N1CCCCC1 [Compound 11-39] (ClAc-F[Pip]W[Cit]-Piperidide)")
0.017
>>> quantitative_result("NC(=O)NCCC[C@H](NC(=O)[C@H](Cc1ccc2ccccc2c1)NC(=O)[C@@H]1CCCCN1C(=O)C[C@H](CCC(=O)O)N1C(=O)C=CC1=O)C(N)=O [Compound 5-1]")
0.61
>>> quantitative_result("CN(C(=O)CCl)[C@@H](Cc1ccccc1)C(=O)N1CCCC[C@H]1C(=O)N[C@@H](Cc1c[nH]c2ccccc12)C(=O)N[C@@H](CCc1ccccc1)C(=O)N1CCCCC1 [Compound 11-44] (ClAc-[NMeF][Pip]W[hPhe]-Piperidide)")
1.5
>>> quantitative_result("Cc1ccc(CNC(=O)[C@H](CCCNC(N)=O)NC(=O)[C@H](Cc2csc3ccccc23)NC(=O)[C@@H]2CCCCN2C(=O)[C@H](Cc2ccccc2)NC(=O)CCl)cc1 [Compound 11-33] (ClAc-F[Pip][Bta][Cit]-{NH(4-Me-benzyl)})")
0.028
>>> quantitative_result("NC(=O)[C@H](Cc1ccc(F)cc1)NC(=O)[C@H](Cc1c[nH]c2ccccc12)NC(=O)[C@@H]1CCCCN1C(=O)[C@H](CCC(=O)O)NC(=O)CCl [Compound 2-27] (ClAc-E[Pip]W[Phe(4-F)]-NH2)")
0.075
>>> quantitative_result("C[C@H](O)[C@H](NC(=O)[C@H](Cc1ccc2ccccc2c1)NC(=O)[C@@H]1CCCCN1C(=O)[C@H](CCC(=O)O)NC(=O)CCl)C(N)=O [Compound 2-7] (ClAc-E[Pip][2Nal][aThr]-NH2)")
0.3
>>> quantitative_result("N=C(N)NCCC[C@H](NC(=O)[C@H](Cc1ccc(-c2ccccc2)cc1)NC(=O)[C@@H]1CCCCN1C(=O)[C@H](CCC(=O)O)NC(=O)CCl)C(N)=O [Compound 2b-9] (ClAc-E[Pip][Bip]R-NH2)")
0.19

---

biological target: Pin1 Cys 113 (Homo sapiens); assay: Covalent labeling (intact MS); type: binding; conditions: purified Pin1 with 5 μM inhibitor, 0-3 hr
Sequence (Q13526 whole entry): as above
Non-standard residues stand in square brackets, D forms with d. Residues, ends and D or L forms follow the SMILES beside them. *: point of attachment. 2Nal = N[C@@H](Cc1ccc2ccccc2c1)C(=O)O; NH(4-Me-benzyl) = Cc1ccc(CN*)cc1; NMeF = CN[C@@H](Cc1ccccc1)C(=O)O; Cit = NC(=O)NCCC[C@H](N)C(=O)O; Pip = O=C(O)[C@@H]1CCCCN1; X3 = C=CS(=O)(=O)*; ClAc = O=C(CCl)*; X1 = O=C(C1CO1)*
Measured quantity: Covalent? (In tact MS), % labeling

>>> result("C=CS(=O)(=O)N[C@@H](CCC(=O)O)C(=O)N1CCCC[C@H]1C(=O)N[C@@H](Cc1ccc2ccccc2c1)C(=O)N[C@@H](CCCNC(N)=O)C(N)=O [Compound 4] (X3-E[Pip][2Nal][Cit]-NH2)")
"Yes (93%"
>>> result("N=C(N)NCCC[C@H](NC(=O)[C@H](Cc1ccc2ccccc2c1)NC(=O)[C@@H]1CCCCN1C(=O)[C@H](CCC(=O)O)NC(=O)CCl)C(N)=O [Compound 2b-6] (ClAc-E[Pip][2Nal]R-NH2)")
"Yes (100%"
>>> result("Cc1ccc(CNC(=O)[C@H](CCCNC(N)=O)NC(=O)[C@H](Cc2c[nH]c3ccccc23)NC(=O)[C@@H]2CCCCN2C(=O)[C@H](Cc2ccccc2)NC(=O)CCl)cc1 [Compound 11-23] (ClAc-F[Pip]W[Cit]-{NH(4-Me-benzyl)})")
"Yes (100%"
>>> result("CCOC(=O)[C@H](CCCNC(N)=O)NC(=O)[C@H](Cc1c[nH]c2ccccc12)NC(=O)[C@@H]1CCCCN1C(=O)[C@H](Cc1ccccc1)N(C)C(=O)CCl [Compound 18] (ClAc-[NMeF][Pip]W[Cit]-OEt)")
"Yes (100%"
>>> result("NC(=O)NCCC[C@H](NC(=O)[C@H](Cc1ccc2ccccc2c1)NC(=O)[C@@H]1CCCCN1C(=O)[C@H](CCC(=O)O)NC(=O)C1CO1)C(N)=O (stereo partly drawn) [Compound 3b-1] (X1-E[Pip][2Nal][Cit]-NH2)")
"Yes (93%"

---

target: Pin1 (GST-Pin1) (Homo sapiens); experiment: Fluorescence polarization (FP) assay, binding to Pin1; conditions: competition with fluorescein-labeled peptide probe; 12 hours pre-incubation at 4° C.; Kenakin Ki equation; read-out: Ki, μM (FP Assay)
Non-standard residues stand in square brackets, D forms with d. Residues, ends and D or L forms follow the SMILES beside them. *: point of attachment. Biotinyl(3aR,4R,6aS) = O=C1N[C@@H]2[C@@H](CS[C@@H]2CCCCC(=O)*)N1; Ala(9-anthryl) = N[C@@H](Cc1c2ccccc2cc2ccccc12)C(=O)O; alloThr(PO3H2) = C[C@H](OP(=O)(O)O)[C@H](N)C(=O)O; 2Nal = N[C@@H](Cc1ccc2ccccc2c1)C(=O)O; Bta = N[C@@H](Cc1csc2ccccc12)C(=O)O; Cit = NC(=O)NCCC[C@H](N)C(=O)O; Pip = O=C(O)[C@@H]1CCCCN1; ClAc = O=C(CCl)*
Measured quantity: Ki (µM)

>>> quantitative_result("C[C@H](NC(=O)[C@H](C)NC(=O)[C@H](CCCNC(N)=O)NC(=O)[C@H](Cc1c[nH]c2ccccc12)NC(=O)[C@@H]1CCCCN1C(=O)[C@@H](CCC(=O)O)NC(=O)CCl)C(=O)N[C@@H](CCCCNC(=O)CCCC[C@H]1SC[C@H]2NC(=O)N[C@H]21)C(N)=O [Compound 2-30] (ClAc-[dE][Pip]W[Cit]AAK(Biotinyl(3aR,4R,6aS))-NH2)")
1.6
>>> quantitative_result("NC(=O)CC[C@H](NC(=O)[C@H](Cc1csc2ccccc12)NC(=O)[C@@H]1CCCCN1C(=O)[C@H](CCC(=O)O)NC(=O)CCl)C(N)=O [Compound 2b-8] (ClAc-E[Pip][Bta]Q-NH2)")
2.83
>>> quantitative_result("C[C@H](OP(=O)(O)O)[C@H](NC(=O)CCl)C(=O)N1CCCC[C@H]1C(=O)N[C@@H](Cc1ccc2ccccc2c1)C(=O)N[C@@H](CCCNC(=N)N)C(N)=O [Compound 2-5] (ClAc-[alloThr(PO3H2)][Pip][2Nal]R-NH2)")
0.13
>>> quantitative_result("N=C(N)NCCC[C@H](NC(=O)[C@H](Cc1c2ccccc2cc2ccccc12)NC(=O)[C@@H]1CCCCN1C(=O)[C@H](CCC(=O)O)NC(=O)CCl)C(N)=O [Compound 2b-11] (ClAc-E[Pip][Ala(9-anthryl)]R-NH2)")
0.609

---

biological target: UniProt Q13526; assay: Fluorescence polarization (FP) assay, binding to Pin1; settings: competition with fluorescein-labeled peptide probe; 12 hours pre-incubation at 4° C.; Kenakin Ki equation; read-out: Ki, μM (FP Assay)
Non-standard residues stand in square brackets, D forms with d. Residues, ends and D or L forms follow the SMILES beside them. *: point of attachment. 2Nal = N[C@@H](Cc1ccc2ccccc2c1)C(=O)O; Met(O2) = CS(=O)(=O)CC[C@H](N)C(=O)O; Cit = NC(=O)NCCC[C@H](N)C(=O)O; Pip = O=C(O)[C@@H]1CCCCN1; ClAc = O=C(CCl)*; NHcPr = C1CC1N*
Measured quantity: Ki (µM)

>>> quantitative_result("CS(=O)(=O)CC[C@H](NC(=O)CCl)C(=O)N1CCCC[C@H]1C(=O)N[C@@H](Cc1ccc2ccccc2c1)C(=O)N[C@@H](CCCNC(N)=O)C(N)=O [Compound 2-14] (ClAc-[Met(O2)][Pip][2Nal][Cit]-NH2)")
0.13
>>> quantitative_result("NC(=O)NCCC[C@H](NC(=O)[C@H](Cc1c[nH]c2ccccc12)NC(=O)[C@@H]1CCCCN1C(=O)[C@H](Cc1ccccc1)NC(=O)CCl)C(=O)NC1CC1 [Compound 11-38] (ClAc-F[Pip]W[Cit]-NHcPr)")
0.018
